Target: human Bak protein (WT) (Homo sapiens, UniProt Q16611)
Construct: His6
Sequence (Q16611 1-186 limits assumed): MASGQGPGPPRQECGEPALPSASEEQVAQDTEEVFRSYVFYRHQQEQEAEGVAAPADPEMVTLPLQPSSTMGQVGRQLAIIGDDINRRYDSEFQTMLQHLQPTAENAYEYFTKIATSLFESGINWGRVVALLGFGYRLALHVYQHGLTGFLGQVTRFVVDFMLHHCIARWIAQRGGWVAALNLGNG
Test: Isothermal titration calorimetry (ITC)
Conditions: 25 °C, one-site binding
Protocol: The binding affinity of BKA-073 with Bak protein was examined by isothermal titration calorimetry (ITC) assay as described, [28]. ITC assay was carried out in the auto-iTC200 instrument (MicroCal, GE) at 25 °C. Purified recombinant human or mouse Bak protein was loaded into a 96 Deepwell PP plate. […] The binding constant (Kd) value was determined by fitting the titration curve to a one-site binding mode, using the Origin software provided by the manufacturer. […]
pKd: −log10 of the molar value.
QUANTITY KIND: pKd

INSERT INTO measurements (compound, quantity_kind, result_value) VALUES
  ('COc1ccc2nc3ccccc3c(NCCNCC(C)O)c2c1 (stereo not shown)', 'pKd', 7.05);
